The measurements presented in this section are drawn from the supplement of paper PMC9170038.

tested on: MS2 coat protein; assay: apparent KD of MS2 coat protein; higher = weaker reporter binding; settings: Eterna round: R107; input ligand: theophylline 2 mM
apparent KD of MS2 coat protein reference

Sequence record: GGCUCCAGCCGAAGGAGCGCUAGAAGGUGACAUGAGGAUCACCCAUGUGUGUGAUGUGGCUAGCAGGUAGGUCGCGGAGGAGCUU [Exclusion - Arginine B (Freestyle 19)]
Units: nM
apparent KD of MS2 coat protein: 90.6

Sequence record: AGGUACAGCAGGUGAUUCUGGCUGUACCAACGAGGACCGGUACGGCCGCCACUCGAAUAAACAUGAGGAUCACCCAUGUACAAAU [T''-M-T'-T-MS2 - Design 7]
Units: nM
apparent KD of MS2 coat protein: 31.9

Sequence record: AAACUGAUCUUCAGGAGUCACUAUAUCUCCCGAGGACCGGUACGGCCGCCACUCGAACGUUUACAUGAGGAUCACCCAUGUGACU [theeternabot_exclusion_MS2_Trp_A_4]
Units: nM
apparent KD of MS2 coat protein: 14.9

---

test system: MS2 coat protein; experiment: apparent KD of MS2 coat protein; designed switch direction (-1 OFF switch, 1 ON switch): -1; higher = weaker reporter binding; details: input ligand: FMN 200 uM
Please mark Criterion met if the recorded apparent KD of MS2 coat protein is equal to or greater than 0.2 µM, and Criterion not met if it falls below.

Sequence record: AGAACAUGAGGAUCACCCAUGUCGCUUUGCCUACCAAACAGGGAGGAUAUGUAGGGCGCGCACCUACAGAAGGCCCAAACGGAA [Eternabot solution 13] (Eterna round: R96, puzzle: Exclusion NG 3)
Group label: Criterion not met

Sequence record: CCCGUCGAUGUAGGAUAUGCCCGGGUCUCCCGGGCAGAAGGACAUGAGGAUCACCCAUGUUCAUGAGGGUCGCCCAUGAAUGGG [Double but mutated MS2] (Eterna round: R96, puzzle: Exclusion NG 1)
Group label: Criterion not met

Sequence record: AACAUGUAAGGAUAUAAAAGAAGGAGUACAAAGCCCUCCUAUUAGAAGGUACAUGAGGAUCACCCAUGUGGCGG [Eternabot (L2) Solution 96] (Eterna round: R97, puzzle: Exclusion 4)
Group label: Criterion met

Sequence record: UAUUCGCAAGCAAAUGGGUACAUGAGGAUCACCCAUGUGCUCGUCUUAUAAGGUACUGUGACGAAAGUCACGGUACC [mod--Eli9] (Eterna round: R97, puzzle: Sensor, turn-off variant 1)
Group label: Criterion not met

Sequence record: AUAUUGUGAGGAUAUGAACUUAGUAUCGAAAGAUACUUAGUUCAGAAGGCACAUGAGGAUCACCCAUGUUUCUC [Long static hairpin v17] (Eterna round: R97, puzzle: Exclusion 4)
Group label: Criterion met

Sequence record: AUUCCACAUGAGGAUCACCCAUGUGAGGAUAUCAUGCUUCGUAGUAAACUACGAAGUGUGAGAAGGCACAAUGG [Omei Ex1 C3] (Eterna round: R97, puzzle: Exclusion 1)
Group label: Criterion not met

Sequence record: UGCCUAAGAGGAUAUACAUAGAAAUAGAUUCAUGUAAAACUACAUGAGGAUCACCCAUGUAGAAGGCUUGGGCU [Mat - Exclusion 2 - JL Mod - D54] (Eterna round: R97, puzzle: Exclusion 2)
Group label: Criterion not met

Sequence record: ACAUGAGGAUCACCCAUGUGACAAUAAUGGCUGAUAUAGAAACAGGAUAUUCGUGAAUAUCUAACGAAGAAGGGUUAUGACUGG [Deportation 67 - Jieux - Exclusion NG 3] (Eterna round: R96, puzzle: Exclusion NG 3)
Group label: Criterion not met

Sequence record: UUAAGGAUAGAGGAUAUAUUAAAGAAGGUGGCGAUAGAAGGCUAGACAUGAGGAUCACCCAUGUAAAUUGGGAU [JR_Ex6_Sub068] (Eterna round: R97, puzzle: Exclusion 6)
Group label: Criterion met
